Just for reference, ChEMBL document CHEMBL3879905 is where these values come from.

- Species: Homo sapiens
- protocol details: Selectivity for human GSHR1a over human motilin receptor
// reported Selectivity ratio per item
Respond numerically, and do not add a unit to the figure.

# annotated cases, reported Selectivity ratio shown
- mol smiles: "C[C@@H]1C(=O)N[C@H](Cc2ccc(O)c(C(C)(C)C)c2)C(=O)NCCCc2ccccc2OCCN[C@@H](C2CC2)C(=O)N1C"
  measured endpoint: "Selectivity ratio"
  measurement: 21
- mol smiles: "C[C@@H]1C(=O)N[C@H](Cc2ccccc2)C(=O)NCCCc2ccccc2OCCN[C@@H](C(C)(C)C)C(=O)N1C"
  measured endpoint: "Selectivity ratio"
  measurement: 4300

Query compound follows.
Fill in the blank: the reported Selectivity ratio of `CCC[C@@H]1NCCOc2ccccc2/C=C\CNC(=O)[C@@H](Cc2ccccc2)NC(=O)[C@@H](C)N(C)C1=O` is ____.
3400

###

// reported Selectivity ratio per item
- Species on record: Homo sapiens
- protocol details: Selectivity for human GSHR1a over human motilin receptor
Respond numerically, and do not add a unit to the figure.

# annotated cases, reported Selectivity ratio shown
- compound: "CC[C@H](C)[C@@H]1NCCOc2ccc(C(=O)O)cc2CCCNC(=O)[C@@H](Cc2ccccc2)NC(=O)[C@@H](C)N(C)C1=O"
  measurement: 100
- compound: "O=C1NC/C=C/c2ccccc2OCCNC2(CCCC2)C(=O)NC2(CCCC2)C(=O)N[C@H]1Cc1ccccc1"
  measurement: 222
- compound: "CC(C)C[C@@H]1NCCOc2ccccc2/C=C\\CNC(=O)[C@H](Cc2ccccc2)NC(=O)C2(CCCC2)NC1=O"
  measurement: 200
- compound: "CC[C@H](C)[C@@H]1NC[C@H](C)Oc2ccccc2CCCNC(=O)[C@H](Cc2cccc(Cl)c2)NC(=O)C2(CCCC2)NC1=O"
  measurement: 300

Fill in the blank: the reported Selectivity ratio of `C[C@@H]1C(=O)N[C@H](Cc2ccc(F)cc2)C(=O)NCCCc2ncccc2OCCN[C@@H](C2CC2)C(=O)N1C` is ____.
714

Fill in the blank: the reported Selectivity ratio of CC1COc2ccccc2CCCNC(=O)[C@@H](Cc2ccc(F)cc2)NC(=O)[C@@H](C)N(C)C(=O)[C@H](C2CC2)N1 (some centres not stated) is ____.
1700

###

- Species on record: Homo sapiens
- protocol details: Selectivity for human GSHR1a over human motilin receptor
measured endpoint: Selectivity ratio
Respond numerically, and do not add a unit to the figure.

# annotated cases, reported Selectivity ratio shown
- mol smiles: "CC[C@H](C)[C@@H]1NCCCCCCCCNC(=O)[C@H](Cc2cccc(Cl)c2)NC(=O)C2(CCCC2)NC1=O"
  Selectivity ratio: 35
- mol smiles: "CCC[C@@H]1NCCOc2ccccc2CCCNC(=O)[C@@H](Cc2ccccc2)NC(=O)[C@H](C)N(C)C1=O"
  Selectivity ratio: 3010

Query compound follows.
Fill in the blank: the reported Selectivity ratio of `CCC[C@@H]1NCCOc2ccccc2CCCNC(=O)[C@@H](Cc2ccccc2)NC(=O)CN(C)C1=O` is ____.
304

###

- Species: Homo sapiens
- protocol details: Selectivity for human GSHR1a over human motilin receptor
Threshold 100: Selectivity ratio strictly smaller gives Criterion met, otherwise Criterion not met.

- mol smiles: "CC(C)[C@@H]1NCCOc2ccccc2/C=C\\CNC(=O)[C@H](Cc2ccccc2)NC(=O)[C@@H](C)N(C)C1=O"
  answer label: "Criterion not met"

Does the reported Selectivity ratio of the following compound sit strictly below 100? `CC(C)[C@@H]1NCCOc2ccccc2CCCNC(=O)[C@H](Cc2ccccc2)NC(=O)C2(CCCC2)NC1=O`
Criterion not met

Does the reported Selectivity ratio of the following compound sit strictly below 100? `CCC[C@@H]1NCCOc2ccccc2CCCNC(=O)[C@@H](Cc2c[nH]c3ccccc23)NC(=O)CN(C)C1=O`
Criterion met

Does the reported Selectivity ratio of the following compound sit strictly below 100? `CC1(C)NC(=O)C2(CCCC2)NCCOc2ccccc2/C=C\CNC(=O)[C@H](Cc2cccc(Cl)c2)NC1=O`
Criterion not met

Does the reported Selectivity ratio of the following compound sit strictly below 100? `CC[C@H](C)[C@@H]1NCCOc2ccccc2CCCNC(=O)[C@@H](Cc2cccc3ccccc23)NC(=O)[C@@H](C)N(C)C1=O`
Criterion not met

Does the reported Selectivity ratio of the following compound sit strictly below 100? `CC[C@H](C)[C@@H]1NCCOc2ccc(F)cc2CCCNC(=O)[C@H](Cc2cccc(Cl)c2)NC(=O)C2(CCCC2)NC1=O`
Criterion met

###

- Organism: Homo sapiens
- protocol details: Selectivity for human GSHR1a over human motilin receptor
// reported Selectivity ratio per item
Respond numerically, and do not add a unit to the figure.

# annotated cases, reported Selectivity ratio shown
- compound: "C[C@H]1NC(=O)C2(CCCC2)NCCOc2ccccc2/C=C\\CNC(=O)[C@H](Cc2cccc(Cl)c2)NC1=O"
  Selectivity ratio: 450
- compound: "CC[C@H](C)[C@@H]1NCCOc2ccccc2CCCNC(=O)[C@@H](Cc2ccccc2)NC(=O)[C@@H](C)N(CC)C1=O"
  Selectivity ratio: 3700
- compound: "CC[C@H](C)[C@@H]1NCCOc2ccccc2CCCNC(=O)[C@@H](Cc2cccc(Cl)c2)NC(=O)[C@@H](C)N(C)C1=O"
  Selectivity ratio: 3040
- compound: "CC[C@H](C)[C@@H]1NCCOc2ccccc2CCCNC(=O)[C@@H](Cc2ccccc2Cl)NC(=O)[C@@H](C)N(C)C1=O"
  Selectivity ratio: 30000
- compound: "CC[C@H](C)[C@@H]1NCCOc2ccccc2CCCNC(=O)[C@@H](Cc2ccc(Cl)cc2)NC(=O)[C@@H](C)N(C)C1=O"
  Selectivity ratio: 28000

Fill in the blank: the reported Selectivity ratio of CCC(C)[C@H]1NCCOc2ccccc2[C@H]2C[C@@H]2CNC(=O)[C@H](Cc2cccc(Cl)c2)NC(=O)C2(CCCC2)NC1=O (stereo not given in full) is ____.
400

Fill in the blank: the reported Selectivity ratio of `C[C@@H]1C(=O)N[C@H](Cc2ccc(F)cc2)C(=O)NCCCc2ccc(F)cc2OCCN[C@@H](C2CC2)C(=O)N1C` is ____.
2500

Fill in the blank: the reported Selectivity ratio of `C[C@@H]1C(=O)N[C@H](Cc2ccccc2)C(=O)NCCCc2ccccc2OCCN[C@@H](C2CC2)C(=O)N1C` is ____.
2500

Fill in the blank: the reported Selectivity ratio of `CC[C@H](C)[C@@H]1NCCOc2ccccc2CCCNC(=O)[C@@H](Cc2ccc3ccccc3c2)NC(=O)[C@@H](C)N(C)C1=O` is ____.
4900

Fill in the blank: the reported Selectivity ratio of `C[C@H]1C(=O)N[C@@H](Cc2ccc(F)cc2)C(=O)NC[C@H]2C[C@@H]2c2ccccc2OCCN[C@H](C2CC2)C(=O)N1C` is ____.
450

Fill in the blank: the reported Selectivity ratio of `CC(C)C[C@@H]1NCCOc2ccccc2/C=C\CNC(=O)[C@H](Cc2ccccc2Cl)NC(=O)C2(CCCC2)NC1=O` is ____.
1040

###

- protocol details: Metabolic stability in human plasma assessed as compound recovery in presence of PBS at 2 hrs by LC-MS analysis
- Format: ADME, cell-free
- setup conditions: read-out: Drug recovery
measured endpoint: remaining at 2 h (%)
Respond with the bare value in %.

Fill in the blank: the reported remaining at 2 h of `C[C@@H]1CN[C@@H](C2CC2)C(=O)N(C)[C@H](C)C(=O)N[C@H](Cc2ccc(F)cc2)C(=O)NCCCc2ccccc2O1` is ____.
99

###

- Species: Homo sapiens
- protocol details: Selectivity for human GSHR1a over human motilin receptor
// reported Selectivity ratio per item
Respond numerically, and do not add a unit to the figure.

- mol smiles: "CC[C@H](C)[C@@H]1NCCCCCCCCNC(=O)[C@@H](Cc2ccccc2)NC(=O)[C@@H](C)N(C)C1=O"
  Selectivity ratio: 28

Fill in the blank: the reported Selectivity ratio of `CC(C)C[C@@H]1NCCOc2ccccc2/C=C\CNC(=O)[C@H](Cc2cccc(Cl)c2)NC(=O)C2(CCCC2)NC1=O` is ____.
1080

Fill in the blank: the reported Selectivity ratio of `CCCC[C@@H]1NCCOc2ccccc2CCCNC(=O)[C@@H](Cc2ccccc2)NC(=O)CN(C)C1=O` is ____.
142

Fill in the blank: the reported Selectivity ratio of `C[C@@H]1C(=O)N[C@H](Cc2ccc(F)cc2)C(=O)NCCCc2cc(NS(C)(=O)=O)ccc2OCCN[C@@H](C2CC2)C(=O)N1C` is ____.
250

###

- Organism: Homo sapiens
- protocol details: Selectivity for human GSHR1a over human motilin receptor
measured endpoint: Selectivity ratio

- mol smiles: "CC[C@H](C)[C@@H]1NCCOc2ccccc2/C=C\\CNC(=O)[C@@H](Cc2ccccc2)NC(=O)[C@@H](C)N(C)C1=O"
  measurement: "> 3300"

Fill in the blank: the reported Selectivity ratio of `CC[C@H](C)[C@@H]1NCCOc2ccccc2CCCNC(=O)[C@@H](Cc2cccs2)NC(=O)[C@@H](C)N(C)C1=O` is ____.
> 1000

Fill in the blank: the reported Selectivity ratio of `CC[C@H](C)[C@@H]1NCCOc2ccccc2CCCNC(=O)[C@@H](Cc2ccccc2)NC(=O)[C@@H](C)N(C)C1=O` is ____.
> 100

Fill in the blank: the reported Selectivity ratio of `CC[C@H](C)[C@@H]1NCCOc2ccccc2CCCNC(=O)[C@@H](Cc2ccc(OC)cc2)NC(=O)[C@@H](C)N(C)C1=O` is ____.
> 7100
